Values from ChEMBL document CHEMBL5137093

- Experiment notes: Metabolic stability in monkey liver microsomes assessed as half life
- Assay type: ADME, Macaca mulatta, Microsome
- Test parameters: rhesus monkey
Recorded metric: half-life (h)
Numeric only. Scale: h

Prompt: What value of measured half-life is listed for COC(=O)N[C@H](C(=O)N[C@@H](Cc1ccccc1)[C@H](CN(Cc1ccc(-c2ccccn2)cc1)NC(=O)[C@@H](NC(=O)OC)C(C)(C)C)OC(=O)OC(OC(=O)[C@@H](N)C(C)C)C(C)C)C(C)(C)C (stereo in doubt; 3s) ?
Response: 2.45

###

We begin with a simple list: items and their reported Ratio.
- Experiment notes: Relative Cmax ratio of Atazanavir in Sprague-Dawley rat at 3 ml/kg,po measured upto 24 hrs by UPLC-MS/MS analysis
- Format: ADME
- Test parameters: in vivo
Answer using only a numeral; do not append any unit.

CCC(C)C(OC(=O)O[C@@H](CN(Cc1ccc(-c2ccccn2)cc1)NC(=O)[C@@H](NC(=O)OC)C(C)(C)C)[C@H](Cc1ccccc1)NC(=O)[C@@H](NC(=O)OC)C(C)(C)C)OC(=O)[C@@H](N)C(C)C (stereo in doubt; 4k) = 3.7

Prompt: What value of measured Ratio is listed for COC(=O)N[C@H](C(=O)N[C@@H](Cc1ccccc1)[C@H](CN(Cc1ccc(-c2ccccn2)cc1)NC(=O)[C@@H](NC(=O)OC)C(C)(C)C)OC(=O)OC(OC(=O)[C@@H](N)C(C)C)C(C)(C)C)C(C)(C)C (stereo in doubt; 4m) ?
Response: 1.9

Prompt: What value of measured Ratio is listed for CCC(C)C(OC(=O)O[C@@H](CN(Cc1ccc(-c2ccccn2)cc1)NC(=O)[C@@H](NC(=O)OC)C(C)(C)C)[C@H](Cc1ccccc1)NC(=O)[C@@H](NC(=O)OC)C(C)(C)C)OC(=O)[C@@H](N)C(C)C (mixture of isomers) ?
Response: 3.8

Prompt: What value of measured Ratio is listed for COC(=O)N[C@H](C(=O)N[C@@H](Cc1ccccc1)[C@H](CN(Cc1ccc(-c2ccccn2)cc1)NC(=O)[C@@H](NC(=O)OC)C(C)(C)C)OC(=O)OC(OC(=O)[C@@H](N)C(C)C)C(C)(C)C)C(C)(C)C (mixture of isomers) ?
Response: 5.8

Prompt: What value of measured Ratio is listed for COC(=O)N[C@H](C(=O)N[C@@H](Cc1ccccc1)[C@H](CN(Cc1ccc(-c2ccccn2)cc1)NC(=O)[C@@H](NC(=O)OC)C(C)(C)C)OC(=O)OC(OC(=O)[C@H](N)C(C)C)C(C)C)C(C)(C)C (stereo in doubt; 5j) ?
Response: 8.2

Prompt: What value of measured Ratio is listed for COC(=O)N[C@H](C(=O)N[C@@H](Cc1ccccc1)[C@H](CN(Cc1ccc(-c2ccccn2)cc1)NC(=O)[C@@H](NC(=O)OC)C(C)(C)C)OC(=O)OC(OC(=O)[C@@H](N)C(C)C)C(C)C)C(C)(C)C (stereo in doubt; 3s) ?
Response: 3.8

Prompt: What value of measured Ratio is listed for COC(=O)N[C@H](C(=O)N[C@@H](Cc1ccccc1)[C@H](CN(Cc1ccc(-c2ccccn2)cc1)NC(=O)[C@@H](NC(=O)OC)C(C)(C)C)OC(=O)OC(OC(=O)C[C@H](N)Cc1cc(F)c(F)cc1F)C(C)C)C(C)(C)C (stereo in doubt; 3ac) ?
Response: 1.2

Prompt: What value of measured Ratio is listed for COC(=O)N[C@H](C(=O)N[C@@H](Cc1ccccc1)[C@H](CN(Cc1ccc(-c2ccccn2)cc1)NC(=O)[C@@H](NC(=O)OC)C(C)(C)C)OC(=O)OC(OC(=O)[C@@H](NC(=O)[C@@H](N)C(C)C)C(C)C)C(C)C)C(C)(C)C (stereo in doubt; 6f) ?
Response: 2.7

Prompt: What value of measured Ratio is listed for COC(=O)N[C@H](C(=O)N[C@@H](Cc1ccccc1)[C@H](CN(Cc1ccc(-c2ccccn2)cc1)NC(=O)[C@@H](NC(=O)OC)C(C)(C)C)OC(=O)OC(OC(=O)[C@H](C)N)C(C)C)C(C)(C)C (stereo in doubt; 3p) ?
Response: 0.9

Prompt: What value of measured Ratio is listed for COC(=O)N[C@H](C(=O)N[C@@H](Cc1ccccc1)[C@H](CN(Cc1ccc(-c2ccccn2)cc1)NC(=O)[C@@H](NC(=O)OC)C(C)(C)C)OC(=O)OC(OC(=O)[C@@H](NC(=O)[C@@H](N)C(C)C)C(C)C)C(C)C)C(C)(C)C (stereo in doubt; 6e) ?
Response: 3.3

Prompt: What value of measured Ratio is listed for COC(=O)N[C@H](C(=O)N[C@@H](Cc1ccccc1)[C@H](CN(Cc1ccc(-c2ccccn2)cc1)NC(=O)[C@@H](NC(=O)OC)C(C)(C)C)OC(=O)OC(OC(=O)[C@@H](N)CC(C)C)C(C)C)C(C)(C)C (stereo in doubt; 3t) ?
Response: 2.1

Prompt: What value of measured Ratio is listed for COC(=O)N[C@H](C(=O)N[C@@H](Cc1ccccc1)[C@H](CN(Cc1ccc(-c2ccccn2)cc1)NC(=O)[C@@H](NC(=O)OC)C(C)(C)C)OC(=O)OC(OC(=O)C1(N)CC1)C(C)C)C(C)(C)C (stereo in doubt; 3x) ?
Response: 1.4

Prompt: What value of measured Ratio is listed for COC(=O)N[C@H](C(=O)N[C@@H](Cc1ccccc1)[C@H](CN(Cc1ccc(-c2ccccn2)cc1)NC(=O)[C@@H](NC(=O)OC)C(C)(C)C)OC(=O)OC(OC(=O)[C@@H](N)CC(C)C)C(C)C)C(C)(C)C (stereo in doubt; 3u) ?
Response: 2.9
